protocol: -log concentration required to induce 50% maximum lipogenic activity against Peroxisome proliferator activated receptor gamma
Criterion: EC50 strictly under 100 nM. Met: YES. Not met: NO.

Cc1oc(-c2ccccc2)nc1CCOc1ccc(CC(Nc2ccccc2C(=O)O)C(=O)O)cc1 (centres undefined); NO
CN(CCOc1ccc(CC(Nc2ccccc2C(=O)c2ccc(OCc3ccccc3)cc2)C(=O)O)cc1)c1nc2ccccc2o1 (centres undefined); NO
Cc1oc(-c2ccccc2)nc1CCOc1ccc(CC(Nc2ccccc2C(=O)c2cccc(CO)c2)C(=O)O)cc1 (centres undefined); NO
CN(CCOc1ccc(CC(Nc2sccc2C(=O)c2ccccc2)C(=O)O)cc1)c1nc2ccccc2o1 (centres undefined); YES
CN(CCOc1ccc(CC(Nc2ccccc2C(=O)c2cccc(OCc3ccccc3)c2)C(=O)O)cc1)c1nc2ccccc2o1 (centres undefined); NO

# TODO verify EC50 < 100 nM strictly for this molecule: CN(CCOc1ccc(CC(Nc2ccccc2C(=O)c2cccc(C(F)(F)F)c2)C(=O)O)cc1)c1nc2ccccc2o1 (centres undefined)
YES

# TODO verify EC50 < 100 nM strictly for this molecule: CCCOC(=O)c1ccccc1NC(Cc1ccc(OCCc2nc(-c3ccccc3)oc2C)cc1)C(=O)O (centres undefined)
YES

# TODO verify EC50 < 100 nM strictly for this molecule: CNC(=O)c1ccccc1NC(Cc1ccc(OCCc2nc(-c3ccccc3)oc2C)cc1)C(=O)O (centres undefined)
NO

# TODO verify EC50 < 100 nM strictly for this molecule: CN(CCOc1ccc(CC(Nc2ccccc2C(=O)c2cccc3ccccc23)C(=O)O)cc1)c1nc2ccccc2o1 (centres undefined)
YES

# TODO verify EC50 < 100 nM strictly for this molecule: Cc1oc(-c2ccccc2)nc1CCOc1ccc(CC(Nc2ccccc2C(=O)c2cccc(C(=O)O)c2)C(=O)O)cc1 (centres undefined)
NO

# TODO verify EC50 < 100 nM strictly for this molecule: Cc1ccccc1C(=O)c1ccccc1NC(Cc1ccc(OCCN(C)c2nc3ccccc3o2)cc1)C(=O)O (centres undefined)
YES

# TODO verify EC50 < 100 nM strictly for this molecule: CN(CCOc1ccc(CC(Nc2ccccc2C(=O)c2ccccc2C(F)(F)F)C(=O)O)cc1)c1nc2ccccc2o1 (centres undefined)
YES

# TODO verify EC50 < 100 nM strictly for this molecule: CN(CCOc1ccc(CC(Nc2ccccc2C(=O)c2ccsc2)C(=O)O)cc1)c1nc2ccccc2o1 (centres undefined)
YES

Reference for the values: BindingDB's records for doi:10.1021/jm980414r
